Reported values of mortality at 96 h, 35 ug/mL for individual entries
assay: Acute toxicity in bony fish assessed as mortality at 35 ug/mL after 96 hrs; details: actinopterygii; read-out: Activity
quantityName: mortality at 96 h, 35 ug/mL (%)

[
  {
    "smilesStr": "CCCCNc1nc(N)nc(OC)c1N=O",
    "units": "%",
    "testValue": 0
  },
  {
    "smilesStr": "COc1nc(N)c(N=O)c(Nc2ccccc2)n1",
    "units": "%",
    "testValue": 0
  }
]

* * *

test system: Cryptococcus neoformans; test: Fungicidal activity against Cryptococcus neoformans ATCC 32264 after 48 hrs by agar plate dilution method; format: functional; details: ATCC 32264, 48 h

[
  {
    "smilesStr": "COc1nc(N)c(N=O)c(Nc2ccccc2)n1",
    "assaySystem": "Cryptococcus neoformans",
    "MFC (µg/mL)": 62.5
  },
  {
    "smilesStr": "COc1nc(N)c(N=O)c(OCc2ccccc2)n1",
    "assaySystem": "Cryptococcus neoformans",
    "MFC (µg/mL)": 125
  },
  {
    "smilesStr": "COc1nc(N)nc(Nc2cccc(Cl)c2)c1N=O",
    "assaySystem": "Cryptococcus neoformans",
    "MFC (µg/mL)": 250
  },
  {
    "smilesStr": "CCCCNc1nc(N)nc(OC)c1N=O",
    "assaySystem": "Cryptococcus neoformans",
    "MFC (µg/mL)": 250
  }
]

* * *

experiment: Acute toxicity in bony fish assessed as mortality at 1.6 ug/mL after 24 hrs; conditions: actinopterygii; read-out: Activity
quantityName: mortality at 24 h, 1.6 ug/mL

[
  {
    "smilesStr": "COc1nc(N)c(N=O)c(OCc2ccccc2)n1",
    "testValue": "100%"
  }
]

* * *

system: Trichophyton rubrum; assay: Antifungal activity against Trichophyton rubrum CCC 110 by NCCLS broth microdilution method; type: functional; settings: read-out: MIC100
Reported values of MIC for individual entries

[
  {
    "compound": "CC(=O)N1CCN(c2ccc(OCC3COC(Cn4ccnc4)(c4ccc(Cl)cc4Cl)O3)cc2)CC1 (stereo not drawn)",
    "units": "µg/mL",
    "MIC": 0.03
  },
  {
    "compound": "COc1nc(N)c(N=O)c(Nc2ccccc2)n1",
    "units": "µg/mL",
    "MIC": 125
  },
  {
    "compound": "CCCCNc1nc(N)nc(OC)c1N=O",
    "units": "µg/mL",
    "MIC": 250
  }
]

* * *

test system: Candida tropicalis; assay: Antifungal activity against Candida tropicalis at 0.98 to 250 ug/mL after 48 hrs by NCCLS broth microdilution method; type: functional, organism-based
The source made the active and inactive calls. The calls are words filed in the database; no cut-off is given here.

[
  {
    "molecule": "CCOC(=O)[C@H](Cc1ccccc1)Nc1nc(N)nc(OCC2CCCCC2)c1N=O",
    "Activity": "inactive"
  },
  {
    "molecule": "Nc1nc(NC(CO)C(=O)O)c(N=O)c(=O)[nH]1 (stereo unspecified)",
    "Activity": "inactive"
  },
  {
    "molecule": "CCOC(=O)CCNc1nc(N)nc(OC)c1N=O",
    "Activity": "inactive"
  },
  {
    "molecule": "COc1nc(N)nc2c1NC(=O)CCN2",
    "Activity": "inactive"
  },
  {
    "molecule": "COc1nc(NCCO)nc(Nc2ccccc2)c1N=O",
    "Activity": "inactive"
  },
  {
    "molecule": "Nc1nc(NCc2ccccc2)c(N=O)c(NCc2ccccc2)n1",
    "Activity": "inactive"
  },
  {
    "molecule": "COc1nc(N)nc(OC)c1N=O",
    "Activity": "inactive"
  },
  {
    "molecule": "COc1nc(NCCOC(C)=O)nc(Nc2cccc(Cl)c2)c1N=O",
    "Activity": "inactive"
  },
  {
    "molecule": "COc1nc(N)nc(NCCO)c1N=O",
    "Activity": "inactive"
  },
  {
    "molecule": "COc1nc(N)nc2c1nnn2C12CC3CC(CC(C3)C1)C2",
    "Activity": "inactive"
  },
  {
    "molecule": "COc1nc(N)nc(NC23CC4CC(CC(C4)C2)C3)c1N=O",
    "Activity": "inactive"
  },
  {
    "molecule": "Nc1nc(NC23CC4CC(CC(C4)C2)C3)c(N=O)c(=O)[nH]1",
    "Activity": "inactive"
  },
  {
    "molecule": "CNc1nc(N)nc(NCc2ccccc2)c1N=O",
    "Activity": "inactive"
  },
  {
    "molecule": "COc1nc(NCCOC(C)=O)nc(Nc2ccccc2)c1N=O",
    "Activity": "inactive"
  },
  {
    "molecule": "CCC(C)C(Nc1nc(N)[nH]c(=O)c1N=O)C(=O)O (stereo unspecified)",
    "Activity": "inactive"
  },
  {
    "molecule": "COc1nc(N)nc2c1NC(=O)[C@H](Cc1ccccc1)N2",
    "Activity": "inactive"
  },
  {
    "molecule": "CCOC(=O)[C@H](C)Nc1nc(N)nc(OCC2CCCCC2)c1N=O",
    "Activity": "inactive"
  },
  {
    "molecule": "CCOC(=O)CNc1nc(N)nc(OC)c1N=O",
    "Activity": "inactive"
  },
  {
    "molecule": "CCOC(=O)C(Cc1ccccc1)Nc1nc(N)nc(OC)c1N=O (stereo unspecified)",
    "Activity": "inactive"
  },
  {
    "molecule": "Nc1nc(NC2CCCCC2)c(N=O)c(N2CCCCCCCC2)n1",
    "Activity": "inactive"
  },
  {
    "molecule": "C[C@@H]1Nc2nc(N)nc(OCC3CCCCC3)c2NC1=O",
    "Activity": "inactive"
  },
  {
    "molecule": "CCOC(=O)CCNc1nc(N)nc(Nc2ccccc2)c1N=O",
    "Activity": "inactive"
  },
  {
    "molecule": "CCOC(=O)C(C)Nc1nc(N)nc(OC)c1N=O (stereo unspecified)",
    "Activity": "inactive"
  },
  {
    "molecule": "CC(C)Nc1nc(N)nc(NCc2ccccc2)c1N=O",
    "Activity": "inactive"
  },
  {
    "molecule": "COc1nc(N)nc(NCCOCCO)c1N=O",
    "Activity": "inactive"
  },
  {
    "molecule": "COc1nc(N)c(N=O)c(N2CCCC2)n1",
    "Activity": "inactive"
  }
]

* * *

system: Candida albicans; assay: Antifungal activity against Candida albicans ATCC 10231 after 24 hrs by microplate reader analysis; format: functional; conditions: ATCC 10231, 24 h
Reported values of MIC50 for individual entries

[
  {
    "smilesStr": "C[C@@H]1[C@H](O)[C@@H](C)/C=C/C=C/C=C/C=C/C=C/C=C/C=C/[C@H](O[C@@H]2O[C@H](C)[C@@H](O)[C@H](N)[C@@H]2O)C[C@@H]2O[C@](O)(C[C@@H](O)C[C@@H](O)[C@H](O)CC[C@@H](O)C[C@@H](O)CC(=O)O[C@H]1C)C[C@H](O)[C@H]2C(=O)O",
    "MIC50, µg/mL": 0.49
  },
  {
    "smilesStr": "CCCCNc1nc(N)nc(OC)c1N=O",
    "MIC50, µg/mL": 7.8
  },
  {
    "smilesStr": "COc1nc(N)nc2c1ncn2C12CC3CC(CC(C3)C1)C2",
    "MIC50, µg/mL": 62.5
  },
  {
    "smilesStr": "COc1nc(N)c(N=O)c(OCc2ccccc2)n1",
    "MIC50, µg/mL": 7.8
  },
  {
    "smilesStr": "COc1nc(N)nc(Nc2cccc(Cl)c2)c1N=O",
    "MIC50, µg/mL": 3.9
  },
  {
    "smilesStr": "COc1nc(N)c(N=O)c(Nc2ccccc2)n1",
    "MIC50, µg/mL": 7.8
  }
]

* * *

Reported values of inhibition of growth at 125 µg/mL for individual entries
tested on: Candida tropicalis; test: Antifungal activity against Candida tropicalis assessed as growth inhibition at 125 ug/mL by microplate reader analysis; assay type: functional; conditions: read-out: GI

[
  {
    "smilesStr": "COc1nc(N)nc2c1ncn2C12CC3CC(CC(C3)C1)C2",
    "assaySystem": "Candida tropicalis",
    "inhibition of growth at 125 µg/mL": "81.2%"
  },
  {
    "smilesStr": "COc1nc(N)nc(Nc2cccc(Cl)c2)c1N=O",
    "assaySystem": "Candida tropicalis",
    "inhibition of growth at 125 µg/mL": "100%"
  },
  {
    "smilesStr": "COc1nc(N)c(N=O)c(Nc2ccccc2)n1",
    "assaySystem": "Candida tropicalis",
    "inhibition of growth at 125 µg/mL": "100%"
  },
  {
    "smilesStr": "COc1nc(N)c(N=O)c(OCc2ccccc2)n1",
    "assaySystem": "Candida tropicalis",
    "inhibition of growth at 125 µg/mL": "100%"
  },
  {
    "smilesStr": "CCCCNc1nc(N)nc(OC)c1N=O",
    "assaySystem": "Candida tropicalis",
    "inhibition of growth at 125 µg/mL": "100%"
  }
]
